# Assay name: Acute toxicity test
# Experimental parameters: mouse, in vivo; oral, suspension in 0.5% Tween 80, 8-week old ddy mice
Attribute measured: LD50

>>> measurement("Cc1cc(C)c(O)c(C(c2cc(C)cc(C)c2O)C(C)C)c1")
"≥ 1000 mg/kg"

Here is the next item to consider.
Can you look up the measured LD50 of CCCCCCCCCCCC(=O)Nc1ccc2nc(S)[nH]c2c1 for me?
≥ 1000 mg/kg
